- target.system: E. coli GroEL/ES (Escherichia coli, UniProt P0A6F5)
- Sequence (P0A6F5 whole entry, looked up): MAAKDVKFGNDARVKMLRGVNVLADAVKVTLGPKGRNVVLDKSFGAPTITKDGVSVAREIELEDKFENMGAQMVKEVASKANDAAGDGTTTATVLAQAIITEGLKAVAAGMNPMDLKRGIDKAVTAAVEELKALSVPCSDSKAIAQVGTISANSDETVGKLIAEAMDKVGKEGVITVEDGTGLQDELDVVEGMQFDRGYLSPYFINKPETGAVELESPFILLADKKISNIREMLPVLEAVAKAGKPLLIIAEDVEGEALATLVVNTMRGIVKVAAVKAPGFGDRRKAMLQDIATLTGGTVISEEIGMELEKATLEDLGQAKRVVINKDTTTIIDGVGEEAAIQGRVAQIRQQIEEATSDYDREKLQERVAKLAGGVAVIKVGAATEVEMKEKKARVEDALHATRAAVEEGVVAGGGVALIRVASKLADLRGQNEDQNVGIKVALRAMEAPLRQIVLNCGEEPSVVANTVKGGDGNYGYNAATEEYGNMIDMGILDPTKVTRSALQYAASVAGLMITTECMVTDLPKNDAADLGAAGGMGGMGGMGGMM
- test.details: Inhibition of Escherichia coli GroEL/GroES-ATPase activity expressed in Escherichia coli DH5alpha/BL21 (DE3) assessed as inhibition of denatured MDH refolding preincubated for 10 mins followed by ATP addition measured after 2 hrs by fluorescence based assay
pIC50: −log10 of the molar value.
Label Criterion met for high-side pIC50 (at or above 4) and Criterion not met for low-side pIC50 (below it).

## Input Is it the case that `O=C(Nc1ccc2nc(-c3ccco3)c(-c3ccco3)nc2c1)N1CCCC1` has pIC50 reaching or exceeding 4?
## Output Criterion not met

## Input Does pIC50 meet or surpass 4 for `O=C(Nc1cc([N+](=O)[O-])ccc1O)c1ccc2c(c1)C(=O)N(Cc1ccccc1)C2=O` ?
## Output Criterion not met

## Input Record `O=C(Nc1ccc(Sc2nc3ccccc3s2)c(Cl)c1)c1cc(Br)cc(Br)c1O` ; criterion: pIC50 no lower than 4. Met?
## Output Criterion met

## Input Say whether `O=C(/C=C/c1ccc([N+](=O)[O-])cc1)c1ccc(O)c(O)c1` shows pIC50 of 4 or more.
## Output Criterion met

## Input Does pIC50 meet or surpass 4 for `O=C1/C(=C/c2ccc(O)c(O)c2)SC(=S)N1c1ccc(O)cc1` ?
## Output Criterion met

## Input Quick check, pIC50 >= 4? `CN(C)c1ccc(/C=C2/C(=O)NC(=S)N(Cc3ccco3)C2=O)cc1`
## Output Criterion not met

## Input Determine whether this compound has pIC50 no lower than 4: `COc1cc(/C=C2/C(=N)N3N=C(CC(C)C)SC3=NC2=O)ccc1OC(=O)c1ccc(F)cc1`
## Output Criterion not met

## Input Exam item: decide whether the reported pIC50 for O=C(CC1Nc2cccc3cccc(c23)NC1=O)Nc1cccc([N+](=O)[O-])c1 (stereo not given) is at least 4.
## Output Criterion met

## Input Form field: pIC50 at least 4? Entry: `Cc1ccc(C)n1-c1ccc(O)c(C(=O)O)c1`
## Output Criterion not met

## Input Is pIC50 at least 4? Consider O=C(O)C1Nc2ccc(Cl)cc2C2C=CCC12 (stereo not given)
## Output Criterion met

====

- target.system: E. coli GroEL/ES (Escherichia coli, UniProt P0A6F5)
- test.details: Inhibition of Escherichia coli GroEL/GroES-ATPase activity expressed in Escherichia coli DH5alpha/BL21 (DE3) assessed as inhibition of denatured MDH refolding preincubated for 10 mins followed by ATP addition measured after 2 hrs by fluorescence based assay
assay.readout: IC50 (µM)
I only need the number, in µM, no unit after it.

## Input Request the reported IC50 associated with `O=c1/c(=C/c2ccc(O)c(O)c2)sc2nc3ccccc3n12`
## Output 9.8

## Input Endpoint output: IC50 of O=C(O)c1cccc2c1NC(c1ccccc1F)C1CC=CC21 (stereo unspecified) . Value?
## Output 95

## Input I have this compound here, `Oc1ccc(NCn2nnc3ccccc32)cc1` , and I need its recorded IC50.
## Output 130

## Input Dear colleague, I am looking for the recorded IC50 of the following compound: `O=C1NC(=S)N(c2ccc(F)cc2)C(=O)/C1=C/c1ccco1`
## Output 25

## Input Name the reported IC50 value associated with the compound `COC(=O)c1ccc(-c2ccc(/C=C3/SC(=S)NC3=O)o2)cc1`
## Output 131

## Input Record request: IC50 value, item O=C(O)c1cccc2c1NC(c1cccc(Br)c1)C1CC=CC21 (stereo unspecified)
## Output 44

## Input Data request, read-out IC50, for `O=C1NC(=S)N(Cc2ccco2)C(=O)/C1=C\c1ccc(-c2ccc([N+](=O)[O-])cc2)o1`
## Output 150
